Cited source: ChEMBL document CHEMBL6114999

Test system: Coxsackievirus B3
Assay notes: Antiviral activity against CVB3 infected in HEp-2 cells assessed as inhibition of virus-induced cell death at 50 uM incubated for 48 hrs by MTT assay relative to control
Assay type: functional
Study conditions: Enterovirus B
inhibition at 50 µM reference
Assay endpoint: inhibition at 50 µM (%)

>>> measured("CC(NC(=O)C12CCC(=O)N1c1ccc(Cl)cc1C(=O)N2)c1ccccc1 (stereo not given)")
31.5
>>> measured("CN1C(=O)c2ccccc2N2C(=O)CCC12C(=O)NCCc1c[nH]c2ccccc12 (stereo not given)")
40.8
>>> measured("CS(=O)(=O)CCNC(=O)C12CCC(=O)N1c1ccccc1C(=O)N2 (stereo not given)")
6.5
>>> measured("COC(=O)C(Cc1c[nH]c2ccccc12)NC(=O)C12CCC(=O)N1c1ccccc1C(=O)N2 (stereo not given)")
45.7
>>> measured("CS(=O)(=O)CCNC(=O)C12CCC(=O)N1c1ccc(Cl)cc1C(=O)N2 (stereo not given)")
24.3
>>> measured("COC(=O)C(CCSC)NC(=O)C12CCC(=O)N1c1ccccc1C(=O)N2C (stereo not given)")
20.2
>>> measured("O=C1NC2(C(=O)NCCc3c[nH]c4ccccc34)CCC(=O)N2c2ccccc21 (stereo not given)")
44.4
>>> measured("NC(=O)c1ncn([C@@H]2O[C@H](CO)[C@@H](O)[C@H]2O)n1 [RIBAVIRIN]")
60.7
>>> measured("COc1cc(CNC(=O)C23CCC(=O)N2c2ccc(Cl)cc2C(=O)N3)ccc1O (stereo not given)")
30.7
>>> measured("COC(=O)C(CCSC)NC(=O)C12CCC(=O)N1c1ccccc1C(=O)N2 (stereo not given)")
21.7

====

Assay notes: Selectivity index, ratio of CC50 for cytotoxicity against human RD cells to EC50 for antiviral activity against EV71 infected in human RD cells
Assay type: toxicity, cell-based
Study conditions: read-out: Ratio CC50/EC50
Assay endpoint: selectivity ratio

>>> measured("COC(=O)C(Cc1c[nH]c2ccccc12)NC(=O)C12CCC(=O)N1c1ccc(Cl)cc1C(=O)N2 (configuration not stated)")
6.4
>>> measured("O=C1NC2(C(=O)NCCc3c[nH]c4ccccc34)CCC(=O)N2c2ccccc21 (configuration not stated)")
11.2
>>> measured("CC(NC(=O)C12CCC(=O)N1c1ccccc1C(=O)N2)c1ccccc1 (configuration not stated)")
7.9
>>> measured("COC(=O)C(Cc1c[nH]c2ccccc12)NC(=O)C12CCC(=O)N1c1ccccc1C(=O)N2C (configuration not stated)")
9.8
>>> measured("COC(=O)C(CCSC)NC(=O)C12CCC(=O)N1c1ccc(Cl)cc1C(=O)N2 (configuration not stated)")
4.4
>>> measured("CN1C(=O)c2ccccc2N2C(=O)CCC12C(=O)NCCc1c[nH]c2ccccc12 (configuration not stated)")
17.9
>>> measured("CC(NC(=O)C12CCC(=O)N1c1ccc(Cl)cc1C(=O)N2)c1ccccc1 (configuration not stated)")
9.2
>>> measured("O=C1NC2(C(=O)NCCc3c[nH]c4ccccc34)CCC(=O)N2c2ccc(Cl)cc21 (configuration not stated)")
8.3
>>> measured("NC(=O)c1ncn([C@@H]2O[C@H](CO)[C@@H](O)[C@H]2O)n1")
6.6
>>> measured("COc1cc(CNC(=O)C23CCC(=O)N2c2ccc(Cl)cc2C(=O)N3)ccc1O (configuration not stated)")
5.9
>>> measured("CSCCNC(=O)C12CCC(=O)N1c1ccc(Cl)cc1C(=O)N2 (configuration not stated)")
6
>>> measured("COC(=O)C(Cc1c[nH]c2ccccc12)NC(=O)C12CCC(=O)N1c1ccccc1C(=O)N2 (configuration not stated)")
8

====

Test system: Enterovirus
Assay notes: Antiviral activity against EV71 infected in human RD cells assessed as inhibition of virus-induced cell death at 25 uM incubated for 48 hrs by MTT assay relative to control
Type: functional
Study conditions: Enterovirus, 71, RD
In this section we review reported inhibition at 25 µM values for a set of compounds.
Assay endpoint: inhibition at 25 µM (%)

>>> measured("COC(=O)C(Cc1c[nH]c2ccccc12)NC(=O)C12CCC(=O)N1c1ccccc1C(=O)N2C (stereo not given)")
55.7
>>> measured("COC(=O)C(Cc1c[nH]c2ccccc12)NC(=O)C12CCC(=O)N1c1ccc(Cl)cc1C(=O)N2 (stereo not given)")
60.6
>>> measured("O=C1NC2(C(=O)NCCc3c[nH]c4ccccc34)CCC(=O)N2c2ccc(Cl)cc21 (stereo not given)")
57.8
>>> measured("CSCCNC(=O)C12CCC(=O)N1c1ccc(Cl)cc1C(=O)N2 (stereo not given)")
34.9
>>> measured("COC(=O)C(CCSC)NC(=O)C12CCC(=O)N1c1ccccc1C(=O)N2C (stereo not given)")
3.2
>>> measured("NC(=O)c1ncn([C@@H]2O[C@H](CO)[C@@H](O)[C@H]2O)n1")
53.8
>>> measured("CS(=O)(=O)CCNC(=O)C12CCC(=O)N1c1ccc(Cl)cc1C(=O)N2 (stereo not given)")
33.8
>>> measured("COC(=O)C(Cc1c[nH]c2ccccc12)NC(=O)C12CCC(=O)N1c1ccccc1C(=O)N2 (stereo not given)")
65.8
>>> measured("CS(=O)(=O)CCNC(=O)C12CCC(=O)N1c1ccccc1C(=O)N2 (stereo not given)")
2
>>> measured("CC(NC(=O)C12CCC(=O)N1c1ccc(Cl)cc1C(=O)N2)c1ccccc1 (stereo not given)")
44.4

====

Assay notes: Cytotoxicity against human RD cells incubated for 48 hrs by MTT assay
Format: toxicity, cell-based
Known CC50 at 48 h of a selection of molecules
Assay endpoint: CC50 at 48 h (µM)

>>> measured("CC(NC(=O)C12CCC(=O)N1c1ccccc1C(=O)N2C)c1ccccc1 (centres undefined)")
234
>>> measured("CSCCNC(=O)C12CCC(=O)N1c1ccc(Cl)cc1C(=O)N2 (centres undefined)")
269
>>> measured("COC(=O)C(Cc1c[nH]c2ccccc12)NC(=O)C12CCC(=O)N1c1ccccc1C(=O)N2C (centres undefined)")
282
>>> measured("CC(NC(=O)C12CCC(=O)N1c1ccccc1C(=O)N2)c1ccccc1 (centres undefined)")
256

====

System: Coxsackievirus B3
Assay notes: Antiviral activity against CVB3 infected in HEp-2 cells assessed as protection from virus-induced cytopathogenicity incubated for 48 hrs by MTT assay
Format: functional, organism-based
Study conditions: Enterovirus B, HEp-2, 48 h
Assay endpoint: EC50 (µM)

>>> measured("COC(=O)C(CCSC)NC(=O)C12CCC(=O)N1c1ccc(Cl)cc1C(=O)N2 (stereo not given)")
60.1
>>> measured("COc1cc(CNC(=O)C23CCC(=O)N2c2ccccc2C(=O)N3)ccc1O (stereo not given)")
35.8
>>> measured("CN1C(=O)c2ccccc2N2C(=O)CCC12C(=O)O (stereo not given)")
152
>>> measured("CN1C(=O)c2ccccc2N2C(=O)CCC12C(=O)NCCc1c[nH]c2ccccc12 (stereo not given)")
82
>>> measured("NC(=O)c1ncn([C@@H]2O[C@H](CO)[C@@H](O)[C@H]2O)n1")
24.7

====

Test system: Coxsackievirus B3
Assay notes: Antiviral activity against CVB3 infected in HEp-2 cells assessed as protection from virus-induced cytopathogenicity incubated for 48 hrs by MTT assay
Assay type: functional, organism-based
Study conditions: Enterovirus B, HEp-2, 48 h
pEC50: −log10 of the molar value.
Tick criterion met if pEC50 is 4 or greater. Tick criterion not met if pEC50 is less than 4.

>>> answer_label("O=C1NC2(C(=O)NCCc3c[nH]c4ccccc34)CCC(=O)N2c2ccccc21 (stereo not given)")
"criterion met"
>>> answer_label("COC(=O)C(Cc1c[nH]c2ccccc12)NC(=O)C12CCC(=O)N1c1ccc(Cl)cc1C(=O)N2 (stereo not given)")
"criterion met"
>>> answer_label("COc1cc(CNC(=O)C23CCC(=O)N2c2ccc(Cl)cc2C(=O)N3)ccc1O (stereo not given)")
"criterion met"
>>> answer_label("COC(=O)C(Cc1c[nH]c2ccccc12)NC(=O)C12CCC(=O)N1c1ccccc1C(=O)N2C (stereo not given)")
"criterion met"
>>> answer_label("CN1C(=O)c2ccccc2N2C(=O)CCC12C(=O)NCCS(C)(=O)=O (stereo not given)")
"criterion met"
>>> answer_label("O=C1NC2(C(=O)NCCc3c[nH]c4ccccc34)CCC(=O)N2c2ccc(Cl)cc21 (stereo not given)")
"criterion met"
>>> answer_label("O=C1NC2(C(=O)O)CCC(=O)N2c2ccc(Cl)cc21 (stereo not given)")
"criterion not met"
>>> answer_label("O=C1NC2(C(=O)O)CCC(=O)N2c2ccccc21 (stereo not given)")
"criterion not met"
>>> answer_label("COC(=O)C(Cc1c[nH]c2ccccc12)NC(=O)C12CCC(=O)N1c1ccccc1C(=O)N2 (stereo not given)")
"criterion met"

====

Assay notes: Cytotoxicity against human RD cells incubated for 48 hrs by MTT assay
Assay type: toxicity, cell-based
We begin with a simple list: items and their reported CC50 at 48 h.
Assay endpoint: CC50 at 48 h

>>> measured("O=C1NC2(C(=O)NCCc3c[nH]c4ccccc34)CCC(=O)N2c2ccc(Cl)cc21 (stereo unspecified)")
"140 µM"
>>> measured("CN1C(=O)c2ccccc2N2C(=O)CCC12C(=O)O (stereo unspecified)")
"327 µM"
>>> measured("CS(=O)(=O)CCNC(=O)C12CCC(=O)N1c1ccc(Cl)cc1C(=O)N2 (stereo unspecified)")
"243 µM"
>>> measured("COC(=O)C(Cc1c[nH]c2ccccc12)NC(=O)C12CCC(=O)N1c1ccc(Cl)cc1C(=O)N2 (stereo unspecified)")
"158 µM"
>>> measured("CC(NC(=O)C12CCC(=O)N1c1ccc(Cl)cc1C(=O)N2)c1ccccc1 (stereo unspecified)")
"270 µM"
>>> measured("CS(=O)(=O)CCNC(=O)C12CCC(=O)N1c1ccccc1C(=O)N2 (stereo unspecified)")
"262 µM"
>>> measured("CSCCNC(=O)C12CCC(=O)N1c1ccccc1C(=O)N2C (stereo unspecified)")
"278 µM"
>>> measured("CN1C(=O)c2ccccc2N2C(=O)CCC12C(=O)NCCc1c[nH]c2ccccc12 (stereo unspecified)")
"265 µM"
>>> measured("COC(=O)C(CCSC)NC(=O)C12CCC(=O)N1c1ccccc1C(=O)N2 (stereo unspecified)")
"245 µM"
>>> measured("COc1cc(CNC(=O)C23CCC(=O)N2c2ccccc2C(=O)N3C)ccc1O (stereo unspecified)")
"243 µM"
>>> measured("CN1C(=O)c2ccccc2N2C(=O)CCC12C(=O)NCCS(C)(=O)=O (stereo unspecified)")
"251 µM"
>>> measured("COC(=O)C(CCSC)NC(=O)C12CCC(=O)N1c1ccc(Cl)cc1C(=O)N2 (stereo unspecified)")
"235 µM"
>>> measured("O=C1NC2(C(=O)NCCc3c[nH]c4ccccc34)CCC(=O)N2c2ccccc21 (stereo unspecified)")
"208 µM"
>>> measured("O=C1NC2(C(=O)O)CCC(=O)N2c2ccc(Cl)cc21 (stereo unspecified)")
"317 µM"
>>> measured("COC(=O)C(Cc1c[nH]c2ccccc12)NC(=O)C12CCC(=O)N1c1ccccc1C(=O)N2 (stereo unspecified)")
"230 µM"
>>> measured("COC(=O)C(CCSC)NC(=O)C12CCC(=O)N1c1ccccc1C(=O)N2C (stereo unspecified)")
"252 µM"
>>> measured("COc1cc(CNC(=O)C23CCC(=O)N2c2ccccc2C(=O)N3)ccc1O (stereo unspecified)")
"264 µM"
>>> measured("CSCCNC(=O)C12CCC(=O)N1c1ccccc1C(=O)N2 (stereo unspecified)")
"288 µM"
>>> measured("COc1cc(CNC(=O)C23CCC(=O)N2c2ccc(Cl)cc2C(=O)N3)ccc1O (stereo unspecified)")
"160 µM"
>>> measured("O=C1NC2(C(=O)O)CCC(=O)N2c2ccccc21 (stereo unspecified)")
"323 µM"
>>> measured("NC(=O)c1ncn([C@@H]2O[C@H](CO)[C@@H](O)[C@H]2O)n1")
"267 µM"
